Cited source for all entries: the supplement of paper PMC10567573

B1: PDS5B (parent)
chain: ITYPPGVKEISDKISKEEMVRRLK

variants of: B1; assay: protein stability index of a GFP-peptide fusion (GPS, HEK-293T) (PSI 1-6); higher = more stable; conditions: c terminus: a fixed tail appended;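 note: lentivirally expressed fusions sorted by FACS into six bins by GFP to DsRed ratio, PSI derived from sequencing read proportions per bin multiplied by bin number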
measurement-label: protein stability index
Answer as a number with no unit attached.

protein stability index in this record for R21M : 3.97

protein stability index in this record for E9R : 2.11

protein stability index in this record for D12A : 2.75

protein stability index in this record for S11G : 3.92

protein stability index in this record for V7M : 4.06

protein stability index in this record for K24N : 3.77

protein stability index in this record for D12I : 3.04

protein stability index in this record for L23T : 4.79

protein stability index in this record for K13Y : 3.38

protein stability index in this record for M19A : 3.68

protein stability index in this record for D12E : 3.57

protein stability index in this record for I14H : 5.35

protein stability index in this record for M19K : 4.54

protein stability index in this record for P4Q : 3.33

protein stability index in this record for I1D : 4.99

protein stability index in this record for P5Y : 2.12

protein stability index in this record for K8T : 4.57

protein stability index in this record for P5A : 4.44

protein stability index in this record for K16D : 3.56

protein stability index in this record for G6R : 4

protein stability index in this record for M19I : 4.24

protein stability index in this record for S15R : 3.7
